- PROCEDURE DETAILS: yeast display, Sf9 membrane polyspecificity reagent, FACS + sequencing; frameworks hold sequencing errors
OBSERVABLE: polyreactivity (PSR sort gate)

The following sequences have reported results that may help.
INSERT INTO results (input_sequence, observable, result) VALUES
  ('QVQLVESGGGLVQAGGSLRLSCAASGRIFARYAMGWYRQAPGKERELVAAITKSVGSTYYADSVKGRFTNSRDNAKNTVYLQMNSLKPEDTAVYYCNAVARGYGYDYWGQGTQVTVSS', 'polyreactivity (PSR sort gate)', 'high polyreactivity'),
  ('QVQLVETGGGLVQAGGSLRLSCAASGFTFIDYTMGWYRQAPGKERELVARITDTGSTNYEDSVKGRFTISRDT', 'polyreactivity (PSR sort gate)', 'low polyreactivity'),
  ('QVQLVESGGGLVQAGGSLRLSCAASGFTNAMGWYRQAPGKERELVAAISYSGDSTNYADSVKGRFTISRDNAKNTVYLQMNSLKPEDSAVYYCNASSPYDYDWGQGTQVTVSS', 'polyreactivity (PSR sort gate)', 'low polyreactivity'),
  ('QVHHVETGGGLDQAGGTLRLSCAASGRTFCTNAMGWSRQAPGKEWELVAAISSSGGSTYYADSVKGRFTISRDNAKNTVYLQMNSLKPEDTAVYYCAKGWHRGVGFCYWGQGTQVTVSS', 'polyreactivity (PSR sort gate)', 'high polyreactivity');

Any idea what polyreactivity (PSR sort gate) was measured for QVQLVESGGGLVQAGGSLRLSCAASGSILARYAMGWYRQAPGKERQLVAAISYNGCSTYYADSVKGRFTISRDNAKNTVYLQMNSLKPEDTAVYYCAKAYDTTLTYNYWGQGTQVTVSS ?
low polyreactivity

Recorded polyreactivity (PSR sort gate) for QVQLVESGGGLVQAGGSLRLSCAASGSIFSSNTMGWYRQAPGKERELVAAITSGGTTYADSVKGRFTISRDNAKNTVYLQMNSLKPEDTAVYYCAARYYIHRGYDYDYWGQGTQVTVSS , please?
high polyreactivity
